These data points were gathered from the supplement of paper PMC6555819.

- Test system: RARb:RXRa (NR concentration 270 nM, RXRa partner concentration 90 nM)
- Assay Overview: PBM binding z-score (relative to random genomic background probes); higher = stronger binding; sequences stand for … in GC…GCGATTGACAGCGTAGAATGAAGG
Threshold check on PBM binding z-score: at or above 2 gives rule met, strictly below gives rule not met.

>>> print(df.to_string())
                     primary_sequence  category_label
0  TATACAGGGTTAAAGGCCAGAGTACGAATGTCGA        rule met
1  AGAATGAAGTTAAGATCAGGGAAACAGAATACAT    rule not met
2  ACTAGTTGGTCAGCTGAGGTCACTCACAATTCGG        rule met
3  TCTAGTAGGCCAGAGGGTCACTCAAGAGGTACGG        rule met
4  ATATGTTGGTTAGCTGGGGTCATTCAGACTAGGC        rule met
5  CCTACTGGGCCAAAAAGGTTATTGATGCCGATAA    rule not met
